Reference source: patent US12495798B2

System: rice
Experiment: Phytotoxicity test for upland field crops (foliar treatment test)
Type: in vivo
Conditions: 50 g ai/ha, Rice (14 days after treatment)
Measured Foliar treatment phytotoxicity, Rice of individual entries
Reported property: Foliar treatment phytotoxicity, Rice

# Compound, Tested target, Reported property, Result
records = [
    ("Cn1nnnc1NC(=O)c1ccc(C(F)(F)F)nc1OCc1nnnn1C(F)F", "rice", "Foliar treatment phytotoxicity, Rice", 6),
    ("CCOC(=O)OC(C)N(C(=O)c1ccc(C(F)(F)F)nc1COCc1nnn(C)n1)c1nnnn1C (centres unmarked)", "rice", "Foliar treatment phytotoxicity, Rice", 0),
    ("Cn1nnnc1CSc1nc(C(F)(F)F)ccc1C(=S)Nc1nnnn1C", "rice", "Foliar treatment phytotoxicity, Rice", 9),
    ("Cn1nnnc1NC(=O)c1ccc(C(F)(F)F)nc1Sc1nnnn1C", "rice", "Foliar treatment phytotoxicity, Rice", 0),
    ("Cn1nc(COCc2nc(C(F)(F)F)ccc2C(=O)Nc2nnnn2C)nc1Br", "rice", "Foliar treatment phytotoxicity, Rice", 6),
]

###

System: wheat
Experiment: Phytotoxicity test for upland field crops (foliar treatment test)
Assay type: in vivo
Parameters: key: 0 (no harm); 9 (complete withered)
Conditions: 50 g ai/ha, Wheat (14 days after treatment)

# Compound, Foliar treatment phytotoxicity, Wheat
data = [
    ("CCOC(=O)OC(C)n1nnn(C)c1=NC(=O)c1ccc(C(F)(F)F)nc1CSCc1nnn(C)n1 (stereo not shown) [Compound No. 4-10]", 0),
    ("CCOC(=O)OC(C)N(C(=O)c1ccc(C(F)(F)F)nc1COCc1nnn(C)n1)c1nnnn1C (stereo not shown) [Compound No. 4-8]", 1),
    ("COc1nc(COCc2nc(C(F)(F)F)ccc2C(=O)Nc2nnnn2C)nn1C [Compound No. 2-129]", 1),
    ("COC(=O)OC(C)N(C(=O)c1ccc(C(F)(F)F)nc1COCc1ncn(C)n1)c1nnnn1C (stereo not shown) [Compound No. 4-1]", 0),
]

###

Measured Foliar treatment phytotoxicity, Corn of individual entries
System: corn
Test: Phytotoxicity test for upland field crops (foliar treatment test)
Format: in vivo
Conditions: 50 g ai/ha, Corn (14 days after treatment)

# Compound, Foliar treatment phytotoxicity, Corn
measured = [
    ("Cn1nnc(COCc2nc(C(F)(F)F)ccc2C(=O)Nc2nnnn2C)n1", 2),
    ("Cn1nc(COCc2nc(C(F)(F)F)ccc2C(=O)Nc2nnnn2C)nc1CF", 1),
    ("CCOC(=O)OC(C)N(C(=O)c1ccc(C(F)(F)F)nc1COCc1nnn(C)n1)c1nnnn1C (stereo not shown)", 0),
    ("Cn1cnc(COCc2nc(C(F)F)ccc2C(=O)Nc2nnnn2C)n1", 0),
    ("CCCn1nnnc1NC(=O)c1ccc(C(F)(F)F)nc1COCc1nc(C(F)F)n(C)n1", 1),
    ("C#CCn1nnnc1NC(=O)c1ccc(C(F)(F)F)nc1COCc1nc(C(F)(F)F)n(C)n1", 0),
    ("C=CCn1nnnc1NC(=O)c1ccc(C(F)(F)F)nc1COCc1nc(C(F)F)n(C)n1", 0),
    ("CN(Cc1nnn(C)n1)c1nc(C(F)(F)F)ccc1C(=O)Nc1nnnn1C", 0),
    ("Cn1nnc(CSCc2nc(C(F)(F)F)ccc2C(=S)Nc2nnnn2C)n1", 0),
    ("Cn1nc(COCc2nc(C(F)(F)F)ccc2C(=O)Nc2nnnn2C)nc1Br", 0),
    ("C=C(C)c1nc(COCc2nc(C(F)(F)F)ccc2C(=O)Nc2nnnn2C)nn1C", 0),
    ("C=CCn1nnnc1NC(=O)c1ccc(C(F)(F)F)nc1COCc1ncn(C)n1", 0),
    ("COc1nc(COCc2nc(C(F)(F)F)ccc2C(=O)Nc2nnnn2C)nn1C", 0),
    ("COC(=O)OC(C)N(C(=O)c1ccc(C(F)(F)F)nc1CSCc1nnn(C)n1)c1nnnn1C (stereo not shown)", 0),
    ("COCn1nnc(COCc2nc(C(F)(F)F)ccc2C(=O)Nc2nnnn2C)n1", 1),
    ("CCn1nnnc1NC(=O)c1ccc(C(F)(F)F)nc1COCc1nc(C(F)(F)F)n(C)n1", 0),
    ("CCOC(=O)OC(C)n1nnn(C)c1=NC(=O)c1ccc(C(F)(F)F)nc1CSCc1nnn(C)n1 (stereo not shown)", 1),
    ("Cn1nnnc1NC(=O)c1ccc(C(F)(F)F)nc1Sc1nnnn1C", 0),
    ("Cc1nc(COCc2nc(C(F)(F)F)ccc2C(=S)Nc2nnnn2C)nn1C", 1),
    ("Cn1nnnc1COc1nc(C(F)(F)F)ccc1C(=O)Nc1nnnn1C", 2),
    ("CCn1nnc(COCc2nc(C(F)(F)F)ccc2C(=O)Nc2nnnn2CC)n1", 0),
    ("Cn1nnnc1CSc1nc(C(F)(F)F)ccc1C(=S)Nc1nnnn1C", 3),
    ("COC(=O)OC(C)N(C(=O)c1ccc(C(F)(F)F)nc1COCc1nnn(C)n1)c1nnnn1C (stereo not shown)", 0),
    ("C=CCn1nnnc1NC(=O)c1ccc(C(F)(F)F)nc1COCc1nc(C(F)(F)F)n(C)n1", 0),
    ("Cn1nc(COCc2nc(C(F)(F)F)ccc2C(=O)Nc2nnnn2C)nc1I", 0),
    ("CCCn1nnnc1NC(=O)c1ccc(C(F)(F)F)nc1COCc1nc(C(F)(F)F)n(C)n1", 0),
    ("Cn1nnc(CS(=O)(=O)Cc2nc(C(F)(F)F)ccc2C(=O)Nc2nnnn2C)n1", 0),
    ("Cn1ncnc1COCc1nc(C(F)(F)F)ccc1C(=O)Nc1nnnn1C", 6),
]

###

System: cotton
Experiment: Phytotoxicity test for field crops (soil treatment test)
Format: in vivo
Parameters: key: 0 (no harm); 9 (complete withered)
Conditions: 100 g ai/ha; Cotton (10 days after treatment)
Classify by measured Soil treatment phytotoxicity, Cotton: T if it is equal to or exceeds 3, F if it is smaller.

# Compound, Classification
data = [
    ("Cn1nnc(CSCc2nc(C(F)(F)F)ccc2C(=O)N(c2nnnn2C)S(C)(=O)=O)n1", "F"),
    ("Cn1nc(COCc2nc(C(F)(F)F)ccc2C(=O)Nc2nnnn2C)nc1Br", "F"),
    ("Cn1nc(COCc2nc(C(F)(F)F)ccc2C(=O)Nc2nnnn2C)nc1Cl", "F"),
    ("CON(Cc1nnn(C)n1)c1nc(C(F)(F)F)ccc1C(=O)Nc1nnnn1C", "F"),
    ("Cn1nnc(COc2nc(C(F)(F)F)ccc2C(=O)Nc2nnnn2C)n1", "T"),
    ("Cn1nnc(COCc2nc(C(F)(F)C(F)(F)F)ccc2C(=O)Nc2nnnn2C)n1", "F"),
    ("Cn1nnc(CSCc2nc(C(F)F)ccc2C(=O)Nc2nnnn2C)n1", "F"),
    ("Cn1nc(COCc2nc(C(F)(F)F)ccc2C(=O)Nc2nnnn2C)nc1C#N", "F"),
    ("CON(Cc1nnn(C)n1)Cc1nc(C(F)(F)F)ccc1C(=O)Nc1nnnn1C", "T"),
    ("CCOC(=O)OC(C)n1nnn(C)c1=NC(=O)c1ccc(C(F)(F)F)nc1CSCc1nnn(C)n1 (stereo not shown)", "F"),
    ("Cc1nc(COCc2nc(C(F)(F)F)ccc2C(=O)Nc2nnnn2C)nn1C", "F"),
]

###

Tested on: corn
Experiment: Phytotoxicity test for field crops (soil treatment test)
Assay type: in vivo
Design: key: 0 (no harm); 9 (complete withered)
Conditions: 100 g ai/ha; Corn (10 days after treatment)
Measured Soil treatment phytotoxicity, Corn of individual entries
Reported property: Soil treatment phytotoxicity, Corn

# Sample smiles, Reported property, Result
data = [
    ("COc1nc(COCc2nc(C(F)(F)F)ccc2C(=O)Nc2nnnn2C)nn1C", "Soil treatment phytotoxicity, Corn", 0),
    ("CON(Cc1nnn(C)n1)c1nc(C(F)(F)F)ccc1C(=O)Nc1nnnn1C", "Soil treatment phytotoxicity, Corn", 0),
    ("Cn1nnnc1COCc1nc(C(F)(F)F)ccc1C(=O)Nc1nnnn1C", "Soil treatment phytotoxicity, Corn", 0),
    ("Cn1nc(COCc2nc(C(F)(F)F)ccc2C(=O)Nc2nnnn2C)nc1Br", "Soil treatment phytotoxicity, Corn", 0),
    ("Cn1nc(COCc2nc(C(F)(F)F)ccc2C(=O)Nc2nnnn2C)nc1C#N", "Soil treatment phytotoxicity, Corn", 0),
    ("Cc1nc(COCc2nc(C(F)(F)F)ccc2C(=O)Nc2nnnn2C)nn1C", "Soil treatment phytotoxicity, Corn", 1),
    ("Cn1nnc(COCc2nc(C(F)(F)F)ccc2C(=O)N(C(=O)c2ccccc2)c2nnnn2C)n1", "Soil treatment phytotoxicity, Corn", 0),
    ("Cn1nnnc1NC(=O)c1ccc(C(F)(F)F)nc1OCc1nnnn1C(F)F", "Soil treatment phytotoxicity, Corn", 1),
]

###

Test system: black nightshade
Test: Herbicidal activity test against upland field weeds (soil treatment test)
Format: in vivo
Design: key: 0 (no control); 100 (complete control)
Conditions: 75 g ai/ha, scale 0 (no control) to 100 (complete control)
Description: […]
Reported property: Soil treatment herbicidal activity, black nightshade

# Sample smiles, Measured number
rows = [
    ("CN(Cc1ncn(C)n1)c1nc(C(F)(F)F)ccc1C(=O)Nc1nnnn1C", 100),
    ("CN(CCc1nnn(C)n1)c1nc(C(F)(F)F)ccc1C(=O)Nc1nnnn1C", 100),
    ("CCN(Cc1nnn(C)n1)c1nc(C(F)(F)F)ccc1C(=O)Nc1nnnn1C", 100),
    ("CN(Cc1nnn(C)n1)c1nc(C(F)(F)F)ccc1C(=O)Nc1nnnn1C", 100),
]
